- Tested on: P. aeruginosa 6065Y
- assayProtocol: In vitro antibacterial activity test (broth microdilution)
- Type: cell-based
- conditionSummary: Pseudomonas aeruginosa, 6065Y
endpointLabel: MIC90 (µg/mL)

CC(C)(O/N=C(\C(=O)N[C@@H]1C(=O)N2C(C(=O)[O-])=C(/C=C/C[n+]3cnc(N)c(NCCN)c3)CSC12)c1nsc(N)n1)C(=O)O (some centres unmarked)
8
CC(C)(O/N=C(\C(=O)N[C@@H]1C(=O)N2C(C(=O)[O-])=C(/C=C/C[n+]3cnc(N)c(NC(=O)CCN)c3)CSC12)c1nsc(N)n1)C(=O)O (some centres unmarked)
32
CC(C)(O/N=C(\C(=O)N[C@@H]1C(=O)N2C(C(=O)[O-])=C(/C=C/C[n+]3cnc(N)c(NCCCN)c3)CSC12)c1nc(N)sc1Cl)C(=O)O (some centres unmarked)
16
CC(C)(O/N=C(\C(=O)N[C@@H]1C(=O)N2C(C(=O)[O-])=C(/C=C/C[n+]3cnc(N)c(NC(=O)CCN)c3)CSC12)c1csc(N)n1)C(=O)O (some centres unmarked)
16
CC(C)(O/N=C(\C(=O)N[C@@H]1C(=O)N2C(C(=O)[O-])=C(/C=C/C[n+]3cnc(N)c(NC(=O)CCCN)c3)CSC12)c1nsc(N)n1)C(=O)O (some centres unmarked)
32
CC(C)(O/N=C(\C(=O)N[C@@H]1C(=O)N2C(C(=O)[O-])=C(/C=C/C[n+]3cnc(N)c(NCCCCN)c3)CSC12)c1nc(N)sc1Cl)C(=O)O (some centres unmarked)
32
CC(C)(O/N=C(\C(=O)N[C@@H]1C(=O)N2C(C(=O)[O-])=C(/C=C/C[n+]3cnc(N)c(NCCN)c3N)CSC12)c1csc(N)n1)C(=O)O (some centres unmarked)
32
CNCCNc1c[n+](C/C=C/C2=C(C(=O)[O-])N3C(=O)[C@@H](NC(=O)/C(=N\OC(C)(C)C(=O)O)c4csc(N)n4)C3SC2)cnc1N (some centres unmarked)
32
CC(C)(O/N=C(\C(=O)N[C@@H]1C(=O)N2C(C(=O)[O-])=C(/C=C/C[n+]3cnc(N)c(NC(=O)CCN)c3N)CSC12)c1csc(N)n1)C(=O)O (some centres unmarked)
16
C[C@H](O/N=C(\C(=O)N[C@@H]1C(=O)N2C(C(=O)[O-])=C(C[n+]3cnc(NCCN)c(NCCNC(=O)c4cc(=O)c(O)cn4O)c3)CSC12)c1nc(N)sc1Cl)C(=O)O (some centres unmarked)
4
CC(C)(O/N=C(\C(=O)N[C@@H]1C(=O)N2C(C(=O)[O-])=C(C[n+]3cnc(N)c(NCCN)c3)CSC12)c1csc(N)n1)C(=O)O (some centres unmarked)
8
